I'd be grateful if you could share measured combination Emax for these entries.
Test system: NB7 (Neuroblastoma)
ASSAY_INFO: combination Emax (second highest fraction inhibited in the dose matrix, 72 h); higher = more inhibition; extreme values may be limits of the assay
Answers are plain numbers.

MOLECULE	combination Emax
COc1nnc2ccc(N3CCC(c4ccc(OCCN5CCN(C)C(=O)[C@H]5C)cc4)CC3)nn12 [AZD5153] + Cn1cnc2c(F)c(Nc3ccc(Br)cc3Cl)c(C(=O)NOCCO)cc21 [Selumetinib] (first compound max 1 µM, 7x7, partner max 10 µM)	0.45
CC1(C)CCC(CN2CCN(c3ccc(C(=O)NS(=O)(=O)c4ccc(NCC5CCOCC5)c([N+](=O)[O-])c4)c(Oc4cnc5[nH]ccc5c4)c3)CC2)=C(c2ccc(Cl)cc2)C1 [Venetoclax] + CS(=O)(=O)CCNCc1ccc(-c2ccc3ncnc(Nc4ccc(OCc5cccc(F)c5)c(Cl)c4)c3c2)o1 [Lapatinib] (first compound max 1 µM, 7x7, partner max 10 µM)	0.117

Shift focus to the following entry.
## Task Which measured combination Emax value corresponds to Cn1cnc2c(F)c(Nc3ccc(Br)cc3Cl)c(C(=O)NOCCO)cc21 [Selumetinib] + C=CCn1c(=O)c2cnc(Nc3ccc(N4CCN(C)CC4)cc3)nc2n1-c1cccc(C(C)(C)O)n1 [AZD1775] (first compound max 10 µM, partner max 1 µM) ?
## Result 0.619

---

Tested on: NCI-N87 (Gastric Carcinoma)
ASSAY_INFO: combination Emax (second highest fraction inhibited in the dose matrix, 72 h); higher = more inhibition; extreme values may be limits of the assay
MEASUREMENT_NAME: combination Emax

COMPOUND	OBSERVED_RESULT
CC1(C)CCC(CN2CCN(c3ccc(C(=O)NS(=O)(=O)c4ccc(NCC5CCOCC5)c([N+](=O)[O-])c4)c(Oc4cnc5[nH]ccc5c4)c3)CC2)=C(c2ccc(Cl)cc2)C1 [Venetoclax] + C1CN(CCC1(C(=O)N[C@@H](CCO)C2=CC=C(C=C2)Cl)N)C3=NC=NC4=C3C=CN4 [Capivasertib] (first compound max 1 µM, 7x7, partner max 3 µM)	0.521

Dear colleague, could you send me combination Emax for each of the items below? Thanks.
1. Cc1cc2ncnn2cc1Nc1ncc2c(n1)n(C1CCOCC1)c(=O)n2C [AZD7648] + CN(C)CCCOc1ccc(-c2ccc3ncc4c(c3c2)n(C2CCOCC2)c(=O)n4C)cn1 [AZD0156] (first compound max 10 µM, 7x7, partner max 1 µM)
2. CN(CCO)CC[C@H](CSc1ccccc1)Nc1ccc(S(=O)(=O)NC(=O)c2ccc(N3CCC([C@@H](O)c4ccccc4-c4ccc(Cl)cc4)CC3)cc2)cc1S(=O)(=O)C(F)(F)F [AZD4320] + Cc1cc2ncnn2cc1Nc1ncc2c(n1)n(C1CCOCC1)c(=O)n2C [AZD7648] (first compound max 1 µM, 7x7, partner max 10 µM)

## Result
[0.477, 0.544]

---

I'd be grateful if you could share measured combination Emax for these entries.
Tested on: H-EMC-SS (Chondrosarcoma)
ASSAY_INFO: combination Emax (second highest fraction inhibited in the dose matrix, 72 h); higher = more inhibition; extreme values may be limits of the assay
Answers are plain numbers.

Before answering, review these 2 worked examples.
COMPOUND	TARGET_OF_ASSAY	OBSERVED_RESULT
CC1(C)CCC(CN2CCN(c3ccc(C(=O)NS(=O)(=O)c4ccc(NCC5CCOCC5)c([N+](=O)[O-])c4)c(Oc4cnc5[nH]ccc5c4)c3)CC2)=C(c2ccc(Cl)cc2)C1 [Venetoclax] + CN(C)CCCOc1ccc(-c2ccc3ncc4c(c3c2)n(C2CCOCC2)c(=O)n4C)cn1 [AZD0156] (first compound max 1 µM, 7x7, partner max 1 µM)	H-EMC-SS (Chondrosarcoma)	0.206
COc1cccc(OCCCN)c1-c1cc(Nc2cnc(C#N)cn2)n[nH]1 [Prexasertib] + C=CCn1c(=O)c2cnc(Nc3ccc(N4CCN(C)CC4)cc3)nc2n1-c1cccc(C(C)(C)O)n1 [AZD1775] (first compound max 1 µM, partner max 1 µM)	H-EMC-SS (Chondrosarcoma)	0.554

Shift focus to the following entry.
## Task Which measured combination Emax value corresponds to COc1cc2c(cc1OCCCCCOc1cc3c(cc1OC)C(=O)N1C=C(C)C[C@H]1C=N3)N=C[C@@H]1CC(C)=CN1C2=O [SG3199] + O=C(c1cc(Cc2n[nH]c(=O)c3ccccc23)ccc1F)N1CCN(C(=O)C2CC2)CC1 [Olaparib] (first compound max 0.001 µM, 7x7, partner max 10 µM) ?
## Result 0.0837

---

System: NCI-H1573 (Lung Adenocarcinoma);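 further: after 72 h of two-drug dosing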
ASSAY_INFO: Bliss excess, mean over the matrix (fraction); higher = more synergy
MEASUREMENT_NAME: Bliss excess

COMPOUND	Bliss excess
COc1nnc2ccc(N3CCC(c4ccc(OCCN5CCN(C)C(=O)[C@H]5C)cc4)CC3)nn12 [AZD5153] + C[C@@H]1COCCN1C2=NC(=NC(=C2)C3(CC3)[S@](=N)(=O)C)C4=C5C=CNC5=NC=C4 [AZD6738] (first compound max 1 µM, 7x7, partner max 10 µM)	0.0531

Shift focus to the following entry.
## Task Short answer please: Bliss excess, NCI-H1573 (Lung Adenocarcinoma), entry NC1(C(=O)N[C@@H](CCO)c2ccc(Cl)cc2)CCN(c2ncnc3[nH]ccc23)CC1 [Capivasertib] + C[C@@H]1COCCN1C2=NC(=NC(=C2)C3(CC3)[S@](=N)(=O)C)C4=C5C=CNC5=NC=C4 [AZD6738] (first compound max 10 µM, 7x7, partner max 10 µM)
## Result -0.0522

---

Tested on: TGBC11TKB (Gastric Carcinoma)
ASSAY_INFO: combination Emax (second highest fraction inhibited in the dose matrix, 72 h); higher = more inhibition; extreme values may be limits of the assay
MEASUREMENT_NAME: combination Emax
Give bare numbers.

Before answering, review these 2 worked examples.
COMPOUND	MEASUREMENT_NAME	OBSERVED_RESULT
O=C(c1cc(Cc2n[nH]c(=O)c3ccccc23)ccc1F)N1CCN(C(=O)C2CC2)CC1 [Olaparib] + CN(CC[C@H](CSC1=CC=CC=C1)NC2=C(C=C(C=C2)S(=O)(=O)NC(=O)C3=CC=C(C=C3)N4CCC(CC4)[C@H](C5=CC=CC=C5C6=CC=C(C=C6)Cl)O)S(=O)(=O)C(F)(F)F)CCO [AZD4320] (first compound max 10 µM, 7x7, partner max 1 µM)	combination Emax	0.42
CN(C)CCCOc1ccc(-c2ccc3ncc4c(c3c2)n(C2CCOCC2)c(=O)n4C)cn1 [AZD0156] + CCN(CCO)CCCOc1ccc2c(Nc3cc(CC(=O)Nc4cccc(F)c4)[nH]n3)ncnc2c1 [AZD2811] (first compound max 1 µM, 7x7, partner max 1 µM)	combination Emax	0.325

Dear colleague, could you send me combination Emax for each of the items below? Thanks.
1. C[C@@H](c1ccc2nccn2c1)n1nnc2ncc(-c3cnn(C)c3)nc21 [Savolitinib] + Cc1c2c(nn1C)CSCc1cc(n(C)n1)CSc1cc(c3ccccc3c1)OCCCc1c(C(=O)O)n(C)c3c-2c(Cl)ccc13 [AZD5991] (first compound max 1 µM, 7x7, partner max 1 µM)
2. C[C@@H](Nc1cc(F)cc(F)c1)c1cc(C(=O)N(C)C)cc2c(=O)cc(N3CCOCC3)oc12 [AZD8186] + C1CN(CCC1(C(=O)N[C@@H](CCO)C2=CC=C(C=C2)Cl)N)C3=NC=NC4=C3C=CN4 [AZD5363] (first compound max 10 µM, 7x7, partner max 10 µM)
3. C=CCn1c(=O)c2cnc(Nc3ccc(N4CCN(C)CC4)cc3)nc2n1-c1cccc(C(C)(C)O)n1 [AZD1775] + O=C(c1cc(Cc2n[nH]c(=O)c3ccccc23)ccc1F)N1CCN(C(=O)C2CC2)CC1 [Olaparib] (first compound max 1 µM, partner max 10 µM)
4. Cn1cnc2c(F)c(Nc3ccc(Br)cc3Cl)c(C(=O)NOCCO)cc21 [Selumetinib] + C[C@@H]1COCCN1C2=NC(=NC(=C2)C3(CC3)[S@](=N)(=O)C)C4=C5C=CNC5=NC=C4 [AZD6738] (first compound max 10 µM, 7x7, partner max 10 µM)

## Result
0.507
0.126
0.794
0.854

Dear colleague, could you send me combination Emax for each of the items below? Thanks.
1. CCN(CCO)CCCOc1ccc2c(Nc3cc(CC(=O)Nc4cccc(F)c4)[nH]n3)ncnc2c1 [AZD2811] + C[C@@H]1COCCN1C2=NC(=NC(=C2)C3(CC3)[S@](=N)(=O)C)C4=C5C=CNC5=NC=C4 [AZD6738] (first compound max 1 µM, 7x7, partner max 10 µM)
2. Cc1nc(-c2cn3c(n2)-c2ccc(-c4cnn(C(C)(C)C(N)=O)c4)cc2OCC3)n(C(C)C)n1 [Taselisib] + O=C(Nc1ccc2[nH]nc(-c3ccncc3)c2c1)[C@@H]1CCN(CC(=O)N2CCN(c3ccc(-c4ncccn4)cc3)CC2)C1 [SCH772984] (first compound max 10 µM, 7x7, partner max 5 µM)
3. CC(=O)c1c(C)c2cnc(Nc3ccc(N4CCNCC4)cn3)nc2n(C2CCCC2)c1=O [Palbociclib] + Cc1c2c(nn1C)CSCc1cc(n(C)n1)CSc1cc(c3ccccc3c1)OCCCc1c(C(=O)O)n(C)c3c-2c(Cl)ccc13 [AZD5991] (first compound max 10 µM, 7x7, partner max 1 µM)

## Result
0.791
0.765
0.355

Dear colleague, could you send me combination Emax for each of the items below? Thanks.
1. CC1(C)CCC(CN2CCN(c3ccc(C(=O)NS(=O)(=O)c4ccc(NCC5CCOCC5)c([N+](=O)[O-])c4)c(Oc4cnc5[nH]ccc5c4)c3)CC2)=C(c2ccc(Cl)cc2)C1 [Venetoclax] + Cn1cnc2c(F)c(Nc3ccc(Br)cc3Cl)c(C(=O)NOCCO)cc21 [Selumetinib] (first compound max 1 µM, 7x7, partner max 3 µM)
2. Cc1c2c(nn1C)CSCc1cc(n(C)n1)CSc1cc(c3ccccc3c1)OCCCc1c(C(=O)O)n(C)c3c-2c(Cl)ccc13 [AZD5991] + CN(C)CCCOc1ccc(-c2ccc3ncc4c(c3c2)n(C2CCOCC2)c(=O)n4C)cn1 [AZD0156] (first compound max 1 µM, 7x7, partner max 1 µM)
3. Cn1cnc2c(F)c(Nc3ccc(Br)cc3Cl)c(C(=O)NOCCO)cc21 [Selumetinib] + C=CCn1c(=O)c2cnc(Nc3ccc(N4CCN(C)CC4)cc3)nc2n1-c1cccc(C(C)(C)O)n1 [AZD1775] (first compound max 10 µM, partner max 1 µM)
4. Cc1c2c(nn1C)CSCc1cc(n(C)n1)CSc1cc(c3ccccc3c1)OCCCc1c(C(=O)O)n(C)c3c-2c(Cl)ccc13 [AZD5991] + C[C@@H](Nc1cc(F)cc(F)c1)c1cc(C(=O)N(C)C)cc2c(=O)cc(N3CCOCC3)oc12 [AZD8186] (first compound max 1 µM, 7x7, partner max 3 µM)
5. COc1cc2ncnc(Nc3ccc(F)c(Cl)c3)c2cc1OCCCN1CCOCC1 [Gefitinib] + CC(C)n1c(=O)n(C)c2cnc3cc(F)c(-c4ccc(OCCCN5CCCCC5)nc4)cc3c21 [AZD1390] (first compound max 10 µM, 7x7, partner max 0.3 µM)

## Result
1. 0.313
2. 0.476
3. 0.912
4. 0.548
5. 0.296
